The values you see were collected from the supplement of paper PMC13380429.

cell viability for assorted molecules
System: Caco-2
Experiment: cell viability relative to DMSO; higher = less toxic
Details: 72 h; 1000 nM
Quick note: give the figure in %, leave out the unit.

# query: cell viability | item O=C(Nc1ncc(SCCN2CCCC2)s1)[C@]1(c2ccc(S(=O)(=O)C3CC3)cc2)C[C@H]1C1CCCCC1 | system: Caco-2
102

Record lookup: for Caco-2, what cell viability belongs to CC(C)CC(NC(=O)OCC1c2ccccc2-c2ccccc21)C(=O)O (stereo in doubt) ?
96.5

What is its cell viability for Caco-2? Entry: N[C@@H]1CCN(c2cccnc2)C1
95.7

----------
Tested on: U2OS
Assay: cell viability relative to DMSO; higher = less toxic
Details: 72 h; 10000 nM
# cell viability listing for each entry below
Field: numeric (%). Do not append units.

Check out these entries, answers already filled in.
1) CN1CCN(c2c(F)cc3c(=O)c(C(=O)O)cn4c3c2SCC4)CC1; 96.8
2) COc1ccc(-n2nc(CCC(=O)N(C)O)cc2-c2ccc(Cl)cc2)cc1; 61.8

// below: cell viability requested for another molecule
What value of measured cell viability is listed for C[C@H](NC(=O)Cc1cc(F)cc(F)c1)C(=O)N[C@@H]1C(=O)N(C)c2ccccc2-c2ccccc21 ?
93.1

----------
System: Caco-2
Test: cell viability relative to DMSO; higher = less toxic
Details: 72 h; 10000 nM
value.type: cell viability (%)
State just the number; it will be interpreted in %.

Worked set:
1. CCCNC(C)C(=O)Nc1ccccc1C (configuration not stated) [prilocaine]; 97.3
2. CNc1cc(OC)c(C(=O)NC2CCN(Cc3ccccc3)C2C)cc1Cl (configuration not stated) [nemonapride]; 90.5
3. C=CCc1cc(OC)c(O)c(C(=O)NCCO)c1 [alibendol]; 99.9
4. CC[C@]1(O)C[C@@H]2CN(CCc3c([nH]c4ccccc34)[C@@](C(=O)OC)(c3cc4c(cc3OC)N(C)[C@H]3[C@@](O)(C(=O)OC)[C@H](OC(C)=O)[C@]5(CC)C=CCN6CC[C@]43[C@@H]65)C2)C1 [Vinblastine (sulfate)]; 27.7
5. O=C(O)CNC(=O)c1ccccc1I [2-iodohippuric-acid]; 105
6. Cc1c[nH]c2ncnc(N3CCC(CN)(C(=O)Nc4cccc(OC(=O)N(C)C)c4)CC3)c12 [LX7101]; 82.4
7. NCC(=O)N[C@@H](CCC(N)=O)C(=O)O [gly-gln]; 97.7
8. CC(C)N1Cc2cc(S(C)(=O)=O)ccc2N(CCN2CC=C(c3c[nH]c4cc(F)ccc34)CC2)S1(=O)=O; 104
9. COc1ccc2c(Oc3ccc(NC(=O)c4c(C)n(CC(C)(C)O)n(-c5ccccc5)c4=O)nc3)ccnc2c1 [AMG458]; 72
10. COc1cnc(NS(=O)(=O)c2ccc(N)cc2)nc1 [sulfameter]; 98.8

Find the measured cell viability: item CC(=O)OCC(=O)[C@@]1(O)CC[C@H]2[C@@H]3CCC4=CC(=O)C=C[C@]4(C)[C@@]3(F)[C@@H](O)C[C@@]21C [isoflupredone-acetate] , target or system Caco-2.
102

Write down the reported cell viability of CN1CCN(c2c(F)cc3c(=O)c(C(=O)O)cn4c3c2SCC4)CC1 [rufloxacin] , test system: Caco-2.
73.8

What reported cell viability corresponds to CN1CCN(c2ccc3nc(-c4c(N)c5c(F)cccc5[nH]c4=O)[nH]c3c2)CC1 [dovitinib] on Caco-2?
61.8

Provide value of cell viability for this record tested with Caco-2: CC1(C)OC(=O)C(OCC2CC2)=C1c1ccc(S(C)(=O)=O)cc1 [firocoxib]
86.5

What value of cell viability on Caco-2 does COc1ccc(-c2cc3c(C)nc(N)nc3n([C@H]3CC[C@H](OCCO)CC3)c2=O)cn1 have?
23.4

Find the measured cell viability: item C[C@]12CC[C@H](O)C[C@H]1CC[C@@H]1[C@@H]2C[C@@H](O)[C@]2(C)[C@@H](C3=CC(=O)OC3)CC[C@]12O [digoxigenin] , target or system Caco-2.
44.6

Param readout= cell viability; system= Caco-2; entry= OCCCNc1ccccc1 [3-anilinopropan-1-ol] ; returns value.
95.3

----------
Test system: Caco-2
Assay: cell viability relative to DMSO; higher = less toxic
Details: 72 h; 10 nM
Property: cell viability; scope: individual molecules
Give just the numeric value; % need not be written.

1) C[N+](C)(C)CC#CCN1CCCC1=O; 104

Please give the measured cell viability for this molecule: CO[C@H]1CC[C@H](N2C(=O)CNc3ncc(-c4ccc(C(C)(C)O)nc4)nc32)CC1
104

Which cell viability is listed for CC(C)c1ccc2oc3nc(N)c(C(=O)O)cc3c(=O)c2c1 ?
95.9

----------
Test system: U2OS
Assay: cell viability relative to DMSO; higher = less toxic
Conditions: 72 h; 1 nM
List of cell viability values.
Form entry: value (%) — number only.

Field: example entries. Status: answers known.
1) Cc1ccc(S(=O)(=O)/C=C/C#N)cc1; 97.2
2) CCSc1ccc2c(c1)N(CCCN1CCN(C)CC1)c1ccccc1S2; 103

Which cell viability reading was recorded for the compound CCOCCn1c(N2CCCN(C)CC2)nc2ccccc21 ?
97.4

----------
Below is a list of entries, each paired with its recorded relative viability EC50 value.
Tested on: U2OS
Experiment: relative viability EC50 (midpoint between 100% and the lowest measured viability); higher = less toxic
Conditions: 72 h

Worked examples follow.
1) O=C(O)c1cc(O)c2c(c1)[C@H]([C@H]1c3cc(C(=O)O)cc(O)c3C(=O)c3c(O[C@@H]4O[C@H](CO)[C@@H](O)[C@H](O)[C@H]4O)cccc31)c1cccc(O[C@@H]3O[C@H](CO)[C@@H](O)[C@H](O)[C@H]3O)c1C2=O [sennoside-A]; > 10 µM
2) COC(=O)Nc1nc2cc(C(=O)c3cccs3)ccc2[nH]1; 0.252 µM

Can you look up the measured relative viability EC50 of CN1CCN(C(=O)O[C@H]2c3nccnc3C(=O)N2c2ccc(Cl)cn2)CC1 for me?
> 10 µM

Entry S=C(NC1CCCCC1)N1CCC(c2cnc[nH]2)CC1 [thioperamide] : reported relative viability EC50 = ?
> 10 µM

Could you share which relative viability EC50 value was measured for CCCNC(C)C(=O)Nc1ccccc1C (configuration not stated) ?
> 10 µM

Entry CCCN(CCC)[C@@H]1CCc2c(OC)cccc2[C@@H]1C [UH-232-(+)] : reported relative viability EC50 = ?
> 10 µM

GET /values?readout=relative viability EC50&item= CCS(=O)(=O)c1cccc(-c2cc(C(=O)NC3CCN(C)CC3)c(C)c3[nH]c4ncc(C)cc4c23)c1
1.43 µM

----------
Tested on: Caco-2
Assay: cell viability relative to DMSO; higher = less toxic
Details: 72 h; 10 nM
value.type: cell viability (%)
The figure you give is taken to be in %; do not add the unit.

1. COC(=O)Nc1nc2cc(C(=O)c3cccs3)ccc2[nH]1 [nocodazole]; 105
2. CC(=O)c1ccc(S(=O)(=O)NC(=O)NC2CCCCC2)cc1 [acetohexamide]; 85.8
3. N[C@@H]1CCN(c2cccnc2)C1 [ABT-202]; 102

Form field: cell viability recorded for CC(=O)N1CC[N+](C)(C)CC1 [4-acetyl-1,1-dimethylpiperazinium] with Caco-2 (enter value)
100

What cell viability appears in the records for this compound with Caco-2? O=C(O)c1cc(O)c2c(c1)[C@H]([C@H]1c3cc(C(=O)O)cc(O)c3C(=O)c3c(O[C@@H]4O[C@H](CO)[C@@H](O)[C@H](O)[C@H]4O)cccc31)c1cccc(O[C@@H]3O[C@H](CO)[C@@H](O)[C@H](O)[C@H]3O)c1C2=O [sennoside-A]
100

Enter reported cell viability observed with Caco-2 for CCC(=O)N1CCN(c2ccc(-n3c(=O)ccc4cnc5ccc(-c6cnc7ccccc7c6)cc5c43)cc2C(F)(F)F)CC1 [torin-1]
101

Caco-2 / cell viability / O=C1C2CCN(CC2)C1(CO)CO [PRIMA1] : value?
91.6

----------
Test system: HepG2
Test: cell viability relative to DMSO; higher = less toxic
Settings: 72 h; 1000 nM
This listing pairs compounds with measured cell viability.
Use % as the unit, but write only the number.

1) O=C1c2ccccc2C(Cc2ccnc(F)c2)(Cc2ccnc(F)c2)c2ccccc21; 95.4
2) Nc1nc(N)c2nc(-c3ccccc3)c(N)nc2n1; 88.7
3) c1nc2c(NC3CCCCC3)nc(Nc3ccc(N4CCOCC4)cc3)nc2[nH]1; 46.3

Requested read-out: cell viability. Entry: CC(C)NCCCn1c(Sc2cc3c(cc2I)OCO3)nc2c(N)ncnc21
0.3

Name the reported cell viability value associated with the compound CCCCCCCCCCCCCCC[C@@H](O)[C@@H](N)CO
95.5

What cell viability value was documented for this compound, CC(=O)c1ccc(S(=O)(=O)NC(=O)NC2CCCCC2)cc1 [acetohexamide] ?
113

Record request: cell viability value, item O=C1C2CCN(CC2)C1(CO)CO
97.9

Any idea what its cell viability is? The compound is Cc1ccc2c(c1)c1c3n2CCNC3CCC1 (stereo not drawn)
102
